These entries and their values trace back to ChEMBL document CHEMBL1144985.

assay_text: Solubility was determined
I'd be grateful if you could share measured solubility for these entries.

solubility lookup needed for CCN1CCC[C@H](C(=O)NO)[C@H]1C(=O)Nc1ccc(OCc2cc(C)nc3ccccc23)cc1 , thanks.
> 10000 µg/mL

Another molecule to check: Cc1cc(COc2ccc(NC(=O)[C@H]3CCN(C4CCC4)C[C@@H]3C(=O)NO)cc2)c2ccccc2n1
> 10000 µg/mL

Another molecule to check: Cc1cc(COc2ccc(NC(=O)[C@H]3CCN(C(=O)c4ccco4)C[C@@H]3C(=O)NO)cc2)c2ccccc2n1
10 µg/mL

Another molecule to check: Cc1cc(COc2ccc(NC(=O)[C@H]3CN(C(=O)c4ccco4)CC[C@@H]3C(=O)NO)cc2)c2ccccc2n1
< 100 µg/mL

====

target_or_system: 72 kDa type IV collagenase (Homo sapiens, UniProt P08253)
Sequence (P08253 whole entry): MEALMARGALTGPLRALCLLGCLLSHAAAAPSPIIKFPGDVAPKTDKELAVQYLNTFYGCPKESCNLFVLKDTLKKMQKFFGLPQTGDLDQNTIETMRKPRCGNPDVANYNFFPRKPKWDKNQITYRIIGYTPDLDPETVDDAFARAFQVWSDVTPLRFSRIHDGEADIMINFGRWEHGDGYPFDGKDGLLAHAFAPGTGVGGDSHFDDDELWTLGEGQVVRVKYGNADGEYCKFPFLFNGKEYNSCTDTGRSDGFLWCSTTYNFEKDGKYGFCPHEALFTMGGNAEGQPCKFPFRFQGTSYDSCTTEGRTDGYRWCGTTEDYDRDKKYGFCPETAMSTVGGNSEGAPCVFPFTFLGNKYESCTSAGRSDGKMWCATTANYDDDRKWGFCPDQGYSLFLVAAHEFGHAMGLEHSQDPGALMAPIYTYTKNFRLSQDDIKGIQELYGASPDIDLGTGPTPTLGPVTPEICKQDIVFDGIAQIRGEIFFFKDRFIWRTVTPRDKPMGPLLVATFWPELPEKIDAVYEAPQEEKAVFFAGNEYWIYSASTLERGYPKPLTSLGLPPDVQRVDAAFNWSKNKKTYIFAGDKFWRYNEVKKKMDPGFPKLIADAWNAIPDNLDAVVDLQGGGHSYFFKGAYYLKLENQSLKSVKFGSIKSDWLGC
I'd be grateful if you could share measured Ki for these entries.

Ki lookup needed for Cc1cc(COc2ccc(NC(=O)[C@H]3CCN(S(=O)(=O)c4cn(C)cn4)C[C@@H]3C(=O)NO)cc2)c2ccccc2n1 , thanks.
1000 nM

Another compound to check: Cc1cc(COc2ccc(NC(=O)[C@H]3CCN(C(=O)C(C)C)C[C@@H]3C(=O)NO)cc2)c2ccccc2n1
> 3330 nM

Another compound to check: Cc1cc(COc2ccc(NC(=O)[C@H]3NCCC[C@@H]3C(=O)NO)cc2)c2ccccc2n1
> 3330 nM

Another compound to check: Cc1cc(COc2ccc(NC(=O)[C@H]3CCN(C(=O)c4ccco4)C[C@@H]3C(=O)NO)cc2)c2ccccc2n1
> 1010 nM
